Tested on: Pseudomonas aeruginosa expressing AmpC (CL5701)
Assay Protocol: Antibiotic activity: growth inhibitory concentration (OD600), Pseudomonas aeruginosa CL5701
Assay type: cell-based
Condition Summary: lowest concentration inhibiting 95% of bacterial growth; in the presence of β lactamase inhibitor Relebactam 4 μg/mL; 35±2° C. for 22 hours; tested range 100 μM to 0.098 μM
The compounds listed here are annotated with their PA_CL5701 MITC95.

Please review the entries below; each comes with its answer.
CC1(C)[C@H](NC(=O)/C(=N\O[C@@H](COc2ccc(-n3cc(CCCN)[n+](CC4(F)CNC4)c3)nc2)C(=O)O)c2csc(N)n2)C(=O)N1OS(=O)(=O)[O-] :: 12.5 µM
C[C@@H]1[C@H](NC(=O)/C(=N\O[C@@](C)(COc2ccc(-c3cn(CCCN)[n+](C)c3)cc2)C(=O)O)c2csc(N)n2)C(=O)N1S(=O)(=O)O.O=C([O-])C(F)(F)F :: 3.125 µM
C[n+]1ccc(-c2ccc(OC[C@H](O/N=C(\C(=O)N[C@@H]3C(=O)N(OS(=O)(=O)[O-])C3(C)C)c3csc(N)n3)C(=O)O)cc2)cc1NCCN :: 5.8 µM
C[n+]1cc(-c2ccc(OCC(O/N=C(\C(=O)N[C@@H]3C(=O)N(OS(=O)(=O)O)C3(C)C)c3csc(N)n3)P(=O)(O)O)cc2)cn1CCCN (stereo partly drawn) :: 50 µM
CC1(C)[C@H](NC(=O)/C(=N\O[C@@H](COc2ccc(-c3cn(CCCN)[n+](CC4CNC4)c3)cc2)C(=O)O)c2csc(N)n2)C(=O)N1OS(=O)(=O)[O-] :: 1.781 µM
C[n+]1cc(-c2ccc(OC[C@H](O/N=C(\C(=O)N[C@@H]3C(=O)N(OS(=O)(=O)O)C3(C)C)c3csc(N)n3)C(=O)O)cc2)cn1CCCNCCCN :: 6.25 µM

Problem: Which value of PA_CL5701 MITC95 has been reported for CC1(C)[C@H](NC(=O)/C(=N\O[C@@](C)(COc2ccc(C3CN=C(NCCN)NC3)cc2)C(=O)O)c2csc(N)n2)C(=O)N1OS(=O)(=O)O (stereo partly drawn) in the records?
Result: 3.125 µM

Problem: Recorded PA_CL5701 MITC95 for `C[n+]1cc(-c2ccc(OC[C@H](O/N=C(/C(=O)N[C@@H]3C(=O)N(OS(=O)(=O)[O-])C3(C)C)c3csc(N)n3)C(=O)O)cc2)cn1CCCNCCN` , please?
Result: 3.125 µM

Problem: # get_value(readout='PA_CL5701 MITC95', item= `C[C@H]1[C@H](NC(=O)/C(=N\O[C@@H](COc2ccc(-c3cn(CCCN)[n+](C)c3)cc2)c2nn[nH]n2)c2csc(N)n2)C(=O)N1S(=O)(=O)O.O=C([O-])C(F)(F)F` )
Result: 6.25 µM

###

System: Pseudomonas aeruginosa expressing AmpC (CL5701)
Assay Protocol: Antibiotic activity: growth inhibitory concentration (OD600), Pseudomonas aeruginosa CL5701
Format: cell-based
Condition Summary: lowest concentration inhibiting 95% of bacterial growth; in the presence of β lactamase inhibitor Relebactam 4 μg/mL; 35±2° C. for 22 hours; tested range 100 μM to 0.098 μM
Label Criterion met for high-side PA_CL5701 MITC95 (at or above 2 µM) and Criterion not met for low-side PA_CL5701 MITC95 (below it).

Before answering, review these 3 worked examples.
C[n+]1cc(-c2ccc(OC[C@H](O/N=C(\C(=O)N[C@@H]3C(=O)N(OS(=O)(=O)[O-])C3(C)C)c3csc(N)n3)C(=O)O)cc2)cnc1N(CCN)CC1CNC1 :: Criterion not met
CC1(C)[C@H](NC(=O)/C(=N\O[C@@H](COc2ccc(-c3cn(CCCN)[n+](CCN)c3)cc2)C(=O)O)c2csc(N)n2)C(=O)N1OS(=O)(=O)[O-] :: Criterion met
CC1(C)[C@H](NC(=O)/C(=N\OC(COc2ccc(C(N)CNC3=NCCN3)cc2)C(=O)O)c2csc(N)n2)C(=O)N1OS(=O)(=O)O (stereo in doubt) :: Criterion met

Problem: Given CC1(C)[C@H](NC(=O)/C(=N\O[C@@H](COc2ccc(Nc3nccn3CCCN)nc2)C(=O)O)c2csc(N)n2)C(=O)N1OS(=O)(=O)O [Example 37A, 2,2,2-trifluoroacetate] , state whether its PA_CL5701 MITC95 is at least 2 µM.
Result: Criterion met

Problem: In plain terms: is recorded PA_CL5701 MITC95 at least 2 µM for `C[n+]1cc(-c2ccc(OC[C@H](O/N=C(\C(=O)N[C@@H]3C(=O)N(OS(=O)(=O)[O-])C3(C)C)c3csc(N)n3)C(=O)O)cc2)ccc1NCCN` ?
Result: Criterion not met

The reported measurements were obtained from patent US11230543B2.
